- System: FLT3 (N841I) (Homo sapiens, UniProt P36888, N841I)
- Procedure summary: KINOMEscan Kd, specific screen against FLT3 mutants
pKd: −log10 of the molar value.

Compound	pKd
CC(C)n1c(C2CCNCC2)nc2c([N+](=O)[O-])c(Br)c(Br)cc21 [SEL24-B489]	6.82

###

- System: FLT3 (ITD, D835V) (Homo sapiens, UniProt P36888, D835V/ITD)
- Sequence (P36888 564-993 D835V): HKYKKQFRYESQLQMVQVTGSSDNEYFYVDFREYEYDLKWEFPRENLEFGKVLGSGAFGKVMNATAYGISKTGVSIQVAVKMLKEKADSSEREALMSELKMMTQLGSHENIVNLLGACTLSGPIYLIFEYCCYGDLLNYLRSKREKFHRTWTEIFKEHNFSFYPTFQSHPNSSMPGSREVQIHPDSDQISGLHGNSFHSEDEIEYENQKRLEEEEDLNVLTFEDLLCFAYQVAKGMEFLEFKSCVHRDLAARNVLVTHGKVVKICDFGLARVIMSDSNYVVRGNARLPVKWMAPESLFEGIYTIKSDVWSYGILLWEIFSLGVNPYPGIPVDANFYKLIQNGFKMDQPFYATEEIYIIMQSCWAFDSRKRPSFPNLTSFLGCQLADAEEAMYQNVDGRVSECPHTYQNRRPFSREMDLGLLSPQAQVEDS
- Procedure summary: KINOMEscan Kd, specific screen against FLT3 mutants
pKd: −log10 of the molar value.

Given smiles	pKd
CC(C)n1c(C2CCNCC2)nc2c([N+](=O)[O-])c(Br)c(Br)cc21	8.55
